All values here come from ChEMBL document CHEMBL1125054.

assay.target: Estrogen receptor (Mus musculus) (UniProt O08537+P19785)
Sequence (O08537 whole entry, looked up): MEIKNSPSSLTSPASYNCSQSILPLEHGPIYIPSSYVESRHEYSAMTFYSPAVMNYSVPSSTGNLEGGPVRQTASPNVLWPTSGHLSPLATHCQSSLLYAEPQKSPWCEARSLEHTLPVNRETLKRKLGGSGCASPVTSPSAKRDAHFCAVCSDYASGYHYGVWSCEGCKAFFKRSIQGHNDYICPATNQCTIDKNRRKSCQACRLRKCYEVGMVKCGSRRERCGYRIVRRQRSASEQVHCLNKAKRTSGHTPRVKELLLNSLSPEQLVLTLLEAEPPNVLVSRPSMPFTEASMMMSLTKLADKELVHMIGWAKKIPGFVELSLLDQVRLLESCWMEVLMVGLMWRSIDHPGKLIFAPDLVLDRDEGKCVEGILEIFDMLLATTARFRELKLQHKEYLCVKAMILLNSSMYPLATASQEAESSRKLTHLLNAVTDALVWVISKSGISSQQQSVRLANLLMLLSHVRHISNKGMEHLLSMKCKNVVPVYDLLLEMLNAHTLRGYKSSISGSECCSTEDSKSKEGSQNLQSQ
Sequence (P19785 whole entry, looked up): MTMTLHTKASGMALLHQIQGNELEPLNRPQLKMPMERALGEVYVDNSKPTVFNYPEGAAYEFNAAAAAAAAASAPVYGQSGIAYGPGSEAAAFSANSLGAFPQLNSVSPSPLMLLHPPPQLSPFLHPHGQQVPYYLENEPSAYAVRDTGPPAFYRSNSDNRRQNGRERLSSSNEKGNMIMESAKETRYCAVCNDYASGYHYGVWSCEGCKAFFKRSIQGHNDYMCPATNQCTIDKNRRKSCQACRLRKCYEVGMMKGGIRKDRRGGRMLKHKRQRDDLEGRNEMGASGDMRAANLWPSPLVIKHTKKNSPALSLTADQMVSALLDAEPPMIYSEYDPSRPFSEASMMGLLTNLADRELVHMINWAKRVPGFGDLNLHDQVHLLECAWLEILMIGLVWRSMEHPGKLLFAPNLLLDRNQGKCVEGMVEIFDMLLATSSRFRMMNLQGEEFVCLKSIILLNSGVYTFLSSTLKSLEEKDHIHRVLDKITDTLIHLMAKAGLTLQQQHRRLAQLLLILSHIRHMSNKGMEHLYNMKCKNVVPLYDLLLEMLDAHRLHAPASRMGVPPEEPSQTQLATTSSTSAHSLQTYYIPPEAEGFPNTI
assay.explanation: Anti-uterotrophic effect in mice at 25 ug
Assay type: functional
measurement.label: Relative uterine weight

Below, 4 molecules whose answers are already recorded.
1. CCN(CC)CCCCCCC1C(c2ccc(O)cc2)=C(C)c2cc(O)ccc21 (stereo unspecified) : 52.5
2. CC1=C(c2ccc(O)cc2)C(CCCCN2CCCC2)c2ccc(O)cc21 (stereo unspecified) : 16.2
3. CC1=C(c2ccc(O)cc2)C(CCCCCCN2CCCC2)c2ccc(O)cc21 (stereo unspecified) : 14.4
4. CC1=C(c2ccc(O)cc2)C(CCCCCCN2CCOCC2)c2ccc(O)cc21 (stereo unspecified) : 47.7

A = CC1=C(c2ccc(O)cc2)C(CCCCCCNCc2ccccc2)c2ccc(O)cc21 (stereo unspecified)
B = CC1=C(c2ccc(O)cc2)C(CCCCCCN)c2ccc(O)cc21 (stereo unspecified)
Returns: the argument ( A or B ) having the larger Relative uterine weight. Selection: enter the item's label. A
